assay: qHTS assay to identify small molecule antagonists of the androgen receptor (AR) signaling pathway - cell viability counter screen (AID 743033; further: nearly all actives have a fitted effect of over 45% in size); conditions: AR-bla HEK293 viability, CellTiter-Glo luminescence, 16 h; series mostly up to 58.5 µM
Results filed as inconclusive are left out. Activity calls are given as the source filed them. The call rests on the fitted dose curve; in most records, active means well fitted cell-killing curve with a large enough effect in the repeat runs; inconclusive means weak or mixed curves; inactive means no such curve, though single readings can be large or run the other way.
Respond with a class label; see t (active), f (inactive)

## Input What classification did `C=C(C)C(=O)OCCOCCOC(=O)C(=C)C` end up with in this test?
## Output f

## Input Now give it for CCOC(=O)C1=C(C)NC(C)=C(C(=O)OC)C1c1cccc(Cl)c1Cl (stereo unspecified) too.
## Output f

## Input Now give it for C=CC(C)(CCC=C(C)C)OC(=O)CC(C)C (stereo unspecified) too.
## Output f

## Input Now give it for `O[C@@H]1CO[C@H]2[C@@H]1OC[C@@H]2O` too.
## Output f

## Input Now give it for CC(CN(C)C)C(C)(O)Cc1ccc(Cl)cc1 (stereo unspecified) too.
## Output f

## Input Now give it for `CN1C[C@H](C(=O)N[C@]2(C)O[C@@]3(O)[C@@H]4CCCN4C(=O)[C@H](Cc4ccccc4)N3C2=O)C[C@@H]2c3cccc4[nH]cc(c34)C[C@H]21` too.
## Output f

## Input Now give it for CCCCC(CC)COP(=O)(O)O (stereo unspecified) too.
## Output f

## Input Now give it for `CCCCCC[C@@H](O)C/C=C\CCCCCCCC(=O)O` too.
## Output f

## Input Now give it for `CCC1(CO)COCOC1` too.
## Output f

## Input Now give it for `Cc1ccc(OC(=O)c2ccccc2O)cc1` too.
## Output f

## Input Now give it for `Oc1cccc(O)c1O` too.
## Output f

## Input Now give it for `CCCCCCCCCCCCCCN(CCO)CCO` too.
## Output t

## Input Now give it for `CN1C(=O)OC(C)(C)C1=O` too.
## Output f

## Input Now give it for CCC1NC(=O)c2cc(S(N)(=O)=O)c(Cl)cc2N1 (stereo unspecified) too.
## Output f

## Input Now give it for `O=C(O)c1ccc(OCCCOc2ccc(C(=O)O)cc2)cc1` too.
## Output f

## Input Now give it for `OCCOCC#CCOCCO` too.
## Output f

## Input Now give it for `CCn1cc(C(=O)O)c(=O)c2cc(F)c(N3CCNCC3)cc21` too.
## Output f

## Input Now give it for O=C1C(=O)c2ccccc2C(O)=C1C1CCC(c2ccc(Cl)cc2)CC1 (stereo unspecified) too.
## Output f

## Input Now give it for `CC(C)=CCC1C(=O)N(c2ccccc2)N(c2ccccc2)C1=O` too.
## Output f

## Input Now give it for `CC=C(Cl)Cl` too.
## Output f

## Input Now give it for `C1COC1` too.
## Output f

## Input Now give it for CCCCCC[C@@H](O)C/C=C\CCCCCCCC(=O)OCC(O)CO (stereo partly specified) too.
## Output f

## Input Now give it for `C/C=C/C=C/C=O` too.
## Output f

## Input Now give it for `COc1ncnc(NS(=O)(=O)c2ccc(N)cc2)c1OC` too.
## Output f

## Input Now give it for `CC(C)=CCC/C(C)=C/CC/C(C)=C/CCC(=O)OC/C=C(\C)CCC=C(C)C` too.
## Output f

## Input Now give it for `O=c1[nH]c2ccc(Cl)cc2o1` too.
## Output f
